# Test system: HeLa Kyoto
# protocol notes: thermal stability score vs G1/S (z-score of summed log2 fold changes over temperatures); higher = more thermally stable than in G1/S
# measurement setup: cell cycle stage: early G1 (4.5 h after nocodazole release)
Recorded thermal stability score for the following sequences
Kindly provide the number alone.

seq_string="MGGTTSTRRVTFEADENENITVVKGIRLSENVIDRMKESSPSGSKSQRYSGAYGASVSDEELKRRVAEELALEQAKKESEDQKRLKQAKELDRERAAANEQLTRAILRERICSEEERAKAKHLARQLEEKDRVLKKQDAFYKEQLARLEERSSEFYRVTTEQYQKAAEEVEAKFKRYESHPVCADLQAKILQCYRENTHQTLKCSALATQYMHCVNHAKQSMLEKGG [CHCHD3]" target_of_assay="HeLa Kyoto" reading=-2.54

Could you now look at the following sequence, please?
What value of measured thermal stability score is listed for MASERLPNRPACLLVASGAAEGVSAQSFLHCFTMASTAFNLQVATPGGKAMEFVDVTESNARWVQDFRLKAYASPAKLESIDGARYHALLIPSCPGALTDLASSGSLARILQHFHSESKPICAVGHGVAALCCATNEDRSWVFDSYSLTGPSVCELVRAPGFARLPLVVEDFVKDSGACFSASEPDAVHVVLDRHLVTGQNASSTVPAVQNLLFLCGSRK [PDDC1] ?
-1.01

---

# Test system: HeLa Kyoto
# protocol notes: solubility change mitosis vs G1/S (difference of NP-40 vs SDS log2 ratios) (log2 ratio difference); higher = more soluble in mitosis
Recorded solubility change mitosis (log2) for the following sequences
Kindly provide the number alone.

These recorded examples may help you get a feel for the data.
seq_string="MDQEPVGGVERGEAVAASGAAAAAAFGESAGQMSNERGFENVELGVIGKKKKVPRRVIHFVSGETMEEYSTDEDEVDGLEKKDVLPTVDPTKLTWGPYLWFYMLRAATSTLSVCDFLGEKIASVLGISTPKYQYAIDEYYRMKKEEEEEEEENRMSEEAEKQYQQNKLQTDSIVQTDQPETVISSSFVNVNFEMEGDSEVIMESKQNPVSVPP [FAM177A1]" readout_type="solubility change mitosis (log2)" reading=-0.0492
seq_string="MSKSKDDAPHELESQFILRLPPEYASTVRRAVQSGHVNLKDRLTIELHPDGRHGIVRVDRVPLASKLVDLPCVMESLKTIDKKTFYKTADICQMLVSTVDGDLYPPVEEPVASTDPKASKKKDKDKEKKFIWNHGITLPLKNVRKRRFRKTAKKKYIESPDVEKEVKRLLSTDAEAVSTRWEIIAEDETKEAENQGLDISSPGMSGHRQGHDSLEHDELREIFNDLSSSSEDEDETQHQDEEDINIIDTEEDLERQLQDKLNESDEQHQENEGTNQLVMGIQKQIDNMKGKLQETQDRAKRQEDLIMKVENLALKNRFQAVLDELKQKEDREKEQLSSLQEELESLLEK [TAF7]" readout_type="solubility change mitosis (log2)" reading=0.081
seq_string="MSGLSGPPARRGPFPLALLLLFLLGPRLVLAISFHLPINSRKCLREEIHKDLLVTGAYEISDQSGGAGGLRSHLKITDSAGHILYSKEDATKGKFAFTTEDYDMFEVCFESKGTGRIPDQLVILDMKHGVEAKNYEEIAKVEKLKPLEVELRRLEDLSESIVNDFAYMKKREEEMRDTNESTNTRVLYFSIFSMFCLIGLATWQVFYLRRFFKAKKLIE [TMED10]" readout_type="solubility change mitosis (log2)" reading=-0.0383
seq_string="MTALSARMLTRSRSLGPGAGPRGCREEPGPLRRREAAAEARKSHSPVKRPRKAQRLRVAYEGSDSEKGEGAEPLKVPVWEPQDWQQQLVNIRAMRNKKDAPVDHLGTEHCYDSSAPPKVRRYQVLLSLMLSSQTKDQVTAGAMQRLRARGLTVDSILQTDDATLGKLIYPVGFWRSKVKYIKQTSAILQQHYGGDIPASVAELVALPGVGPKMAHLAMAVAWGTVSGIAVDTHVHRIANRLRWTKKATKSPEETRAALEEWLPRELWHEINGLLVGFGQQTCLPVHPRCHACLNQALCPAAQGL [NTHL1]" readout_type="solubility change mitosis (log2)" reading=0.29
seq_string="MTMGDKKSPTRPKRQAKPAADEGFWDCSVCTFRNSAEAFKCSICDVRKGTSTRKPRINSQLVAQQVAQQYATPPPPKKEKKEKVEKQDKEKPEKDKEISPSVTKKNTNKKTKPKSDILKDPPSEANSIQSANATTKTSETNHTSRPRLKNVDRSTAQQLAVTVGNVTVIITDFKEKTRSSSTSSSTVTSSAGSEQQNQSSSGSESTDKGSSRSSTPKGDMSAVNDESF [RYBP]" readout_type="solubility change mitosis (log2)" reading=0.0865
seq_string="MSCAGAAAAPRLWRLRPGARRSLSAYGRRTSVRFRSSGMTLDNISRAAVDRIIRVDHAGEYGANRIYAGQMAVLGRTSVGPVIQKMWDQEKDHLKKFNELMVTFRVRPTVLMPLWNVLGFALGAGTALLGKEGAMACTVAVEESIAHHYNNQIRTLMEEDPEKYEELLQLIKKFRDEELEHHDIGLDHDAELAPAYAVLKSIIQAGCRVAIYLSERL [COQ7]" readout_type="solubility change mitosis (log2)" reading=-0.0504
seq_string="MKLHYVAVLTLAILMFLTWLPESLSCNKALCASDVSKCLIQELCQCRPGEGNCSCCKECMLCLGALWDECCDCVGMCNPRNYSDTPPTSKSTVEELHEPIPSLFRALTEGDTQLNWNIVSFPVAEELSHHENLVSFLETVNQPHHQNVSVPSNNVHAPYSSDKEHMCTVVYFDDCMSIHQCKISCESMGASKYRWFHNACCECIGPECIDYGSKTVKCMNCMF [TWSG1]" readout_type="solubility change mitosis (log2)" reading=-0.383
seq_string="MSEDLAKQLASYKAQLQQVEAALSGNGENEDLLKLKKDLQEVIELTKDLLSTQPSETLASSDSFASTQPTHSWKVGDKCMAVWSEDGQCYEAEIEEIDEENGTAAITFAGYGNAEVTPLLNLKPVEEGRKAKEDSGNKPMSKKEMIAQQREYKKKKALKKAQRIKELEQEREDQKVKWQQFNNRAYSKNKKGQVKRSIFASPESVTGKVGVGTCGIADKPMTQYQDTSKYNVRHLMPQ [SMNDC1]" readout_type="solubility change mitosis (log2)" reading=0.405
seq_string="MPPKKDVPVKKPAGPSISKPAAKPAAAGAPPAKTKAEPAVPQAPQKTQEPPVDLSKVVIEFNKDQLEEFKEAFELFDRVGDGKILYSQCGDVMRALGQNPTNAEVLKVLGNPKSDELKSRRVDFETFLPMLQAVAKNRGQGTYEDYLEGFRVFDKEGNGKVMGAELRHVLTTLGEKMTEEEVETVLAGHEDSNGCINYEAFLKHILSV [MYL6B]" readout_type="solubility change mitosis (log2)" reading=0.317
seq_string="MQRRSRGINTGLILLLSQIFHVGINNIPPVTLATLALNIWFFLNPQKPLYSSCLSVEKCYQQKDWQRLLLSPLHHADDWHLYFNMASMLWKGINLERRLGSRWFAYVITAFSVLTGVVYLLLQFAVAEFMDEPDFKRSCAVGFSGVLFALKVLNNHYCPGGFVNILGFPVPNRFACWVELVAIHLFSPGTSFAGHLAGILVGLMYTQGPLKKIMEACAGGFSSSVGYPGRQYYFNSSGSSGYQDYYPHGRPDHYEEAPRNYDTYTAGLSEEEQLERALQASLWDRGNTRNSPPPYGFHLSPEEMRRQRLHRFDSQ [RHBDD1]" readout_type="solubility change mitosis (log2)" reading=-0.0234

Could you now look at the following sequence, please?
What value of measured solubility change mitosis (log2) is listed for MAESPTEEAATAGAGAAGPGASSVAGVVGVSGSGGGFGPPFLPDVWAAAAAAGGAGGPGSGLAPLPGLPPSAAAHGAALLSHWDPTLSSDWDGERTAPQCLLRIKRDIMSIYKEPPPGMFVVPDTVDMTKIHALITGPFDTPYEGGFFLFVFRCPPDYPIHPPRVKLMTTGNNTVRFNPNFYRNGKVCLSILGTWTGPAWSPAQSISSVLISIQSLMTENPYHNEPGFEQERHPGDSKNYNECIRHETIRVAVCDMMEGKCPCPEPLRGVMEKSFLEYYDFYEVACKDRLHLQGQTMQDPFGEKRGHFDYQSLLMRLGLIRQKVLERLHNENAEMDSDSSSSGTETDLHGSLRV [UBE2Z] ?
-0.169

---

# System: HeLa Kyoto
# protocol notes: melting temperature (median over replicates), in situ; higher = more thermally stable
# measurement setup: cell cycle stage: G1/S
readout type: melting temperature (°C)
Write the answer as a number in °C, unit excluded.

These recorded examples may help you get a feel for the data.
seq_string="MAASRWARKAVVLLCASDLLLLLLLLPPPGSCAAEGSPGTPDESTPPPRKKKKDIRDYNDADMARLLEQWEKDDDIEEGDLPEHKRPSAPVDFSKIDPSKPESILKMTKKGKTLMMFVTVSGSPTEKETEEITSLWQGSLFNANYDVQRFIVGSDRAIFMLRDGSYAWEIKDFLVGQDRCADVTLEGQVYPGKGGGSKEKNKTKQDKGKKKKEGDLKSRSSKEENRAGNKREDL [MESDC2]" target_of_assay="HeLa Kyoto" reading=55.5
seq_string="MSCAGAAAAPRLWRLRPGARRSLSAYGRRTSVRFRSSGMTLDNISRAAVDRIIRVDHAGEYGANRIYAGQMAVLGRTSVGPVIQKMWDQEKDHLKKFNELMVTFRVRPTVLMPLWNVLGFALGAGTALLGKEGAMACTVAVEESIAHHYNNQIRTLMEEDPEKYEELLQLIKKFRDEELEHHDIGLDHDAELAPAYAVLKSIIQAGCRVAIYLSERL [COQ7]" target_of_assay="HeLa Kyoto" reading=56.1

Could you now look at the following sequence, please?
What value of measured melting temperature is listed for MAHAPARCPSARGSGDGEMGKPRNVALITGITGQDGSYLAEFLLEKGYEVHGIVRRSSSFNTGRIEHLYKNPQAHIEGNMKLHYGDLTDSTCLVKIINEVKPTEIYNLGAQSHVKISFDLAEYTADVDGVGTLRLLDAVKTCGLINSVKFYQASTSELYGKVQEIPQKETTPFYPRSPYGAAKLYAYWIVVNFREAYNLFAVNGILFNHESPRRGANFVTRKISRSVAKIYLGQLECFSLGNLDAKRDWGHAKDYVEAMWLMLQNDEPEDFVIATGEVHSVREFVEKSFLHIGKTIVWEGKNENEVGRCKETGKVHVTVDLKYYRPTEVDFLQGDCTKAKQKLNWKPRVAFDELVREMVHADVELMRTNPNA [GMDS] ?
56.4
